tested on: Escherichia coli; settings: Concentration 32 ug.mL-1;; ASSAY_TEST Inhibition of Bacterial Growth; detection method Absorption (OD600); MEDIA CAMHB; plate type 384well; NBS; CORNING #3640; time 18 hr
Description: Antibacterial activity against Escherichia coli ATCC 25922 (CO-ADD:GN_001); MIC in CAMBH media using NBS plates, by OD(600)
Potency and affinity values are given separately.
Below, each entry is listed alongside its reported Inhibition.
Write down the numeric answer in % and omit the unit.

Below, 5 compounds whose answers are already recorded.
test smiles	Inhibition / %
Cc1cccc(C)c1NC(=O)CSc1nnc2ccc(C(=O)Nc3cccc(F)c3)cn12	2.91
C=Cc1ccc(CN(c2cccc(Cl)c2)S(=O)(=O)c2cccn3c(C)nnc23)cc1	-14.37
Cc1ccc(-c2ccc3nn(Cc4cccc(Cl)c4)c(=O)n3n2)cc1C	-3.9
O=C(CCc1nnc2c3cc(-c4ccc(F)cc4)nn3ccn12)NCc1ccccc1Cl	-10.24
CCCCOc1ccc(-c2cc3c4nnc(SCC(=O)Nc5ccc(OC)cc5)n4ccn3n2)cc1	-9.08

Enquiry: # returns recorded Inhibition (system: Escherichia coli) for `CCc1ccc(N(Cc2ccc(C)cc2)S(=O)(=O)c2cccn3cnnc23)cc1`
Return: 2.14

Enquiry: # returns recorded Inhibition (system: Escherichia coli) for `CCOC(=O)c1ccc(NC(=O)CSc2nc3ccccc3n3c(C(C)C)nnc23)cc1`
Return: -9.79

Enquiry: # returns recorded Inhibition (system: Escherichia coli) for `Cc1cc(C)cc(NC(=O)Cn2nc3c(Sc4cccc(C)c4)nc4ccccc4n3c2=O)c1`
Return: 2.96

Enquiry: # returns recorded Inhibition (system: Escherichia coli) for `Cc1cccc(NC(=O)Cn2nc3ccc(-c4ccc(Cl)cc4)nn3c2=O)c1`
Return: -1.37

Enquiry: # returns recorded Inhibition (system: Escherichia coli) for `COc1ccc(-c2cc3c4nn(CC(=O)Nc5cccc(C(C)=O)c5)c(=O)n4ccn3n2)cc1`
Return: -6.63

----------
test system: Escherichia coli; settings: Concentration 32 ug.mL-1;; ASSAY_TEST Inhibition of Bacterial Growth; detection method Absorption (OD600); MEDIA CAMHB; plate type 384well; NBS; CORNING #3640; time 18 hr
Potency and affinity values are given separately.
Below, each entry is listed alongside its reported Inhibition.
Write down the numeric answer in % and omit the unit.

Below, 5 molecules whose answers are already recorded.
test smiles	tested system	Inhibition [%]
Cc1nnc2ccc(S(=O)(=O)N(Cc3ccc(F)cc3)c3ccc(Cl)cc3)cn12	Escherichia coli	-7.02
COc1cccc(-n2ccn3c(SCc4cc(C)ccc4C)nnc3c2=O)c1	Escherichia coli	-0.49
Cc1cc(C)c(NC(=O)Cn2nc3n(C)c(=O)c4c(c(-c5ccccc5)cn4C)n3c2=O)c(C)c1	Escherichia coli	1.74
Cc1cc(C)c(NC(=O)Cn2nc3ccc(Sc4cccc(F)c4)nn3c2=O)c(C)c1	Escherichia coli	-5.92
Cc1cc(C)cc(N(Cc2ccccc2F)S(=O)(=O)c2cccn3c(C)nnc23)c1	Escherichia coli	-0.2

Enquiry: Record request: Inhibition value, item `O=C(Cn1nc2c(SC3CCCCC3)nccn2c1=O)NCc1ccc(F)cc1`
Return: -3.55

Enquiry: Record request: Inhibition value, item `COc1cccc(-c2nc(CSc3nc4ccccc4n4c(C)nnc34)c(C)o2)c1OC`
Return: -2.95

Enquiry: Record request: Inhibition value, item `COC(=O)c1ccc(CN(c2cccc(F)c2)S(=O)(=O)c2ccc3nncn3c2)o1`
Return: -3.46

Enquiry: Record request: Inhibition value, item `O=C(Cn1nc2c(N3CCOCC3)nccn2c1=O)NCc1ccc(C(F)(F)F)cc1`
Return: -9.55

Enquiry: Record request: Inhibition value, item `CCOc1ccccc1NC(=O)Cn1nc2c(Sc3cccc(C)c3)nccn2c1=O`
Return: -1.9

meta.source: ChEMBL document CHEMBL4513146
